Record form. Attribute: % Protection. Fill in for each entry.
Test: Corrosion Test 2 (dynamic wheel test; 3 wt% brine; CO2 + H2S)
Details: 2 ppm; 24 h, 70° C.
Write the number in % without appending the unit.

The recorded % Protection for CCCCCCCCNCCc1ccccn1 [Example 2] is 37

Input CCCCCCCCCCNCCc1ccccn1 [Example 3] . Output % Protection: 7

Measured % Protection, CCCCCCNCCc1ccccn1 [Example 1] : 13

Memo: CCCCCCCCCCCCCCCCCCNCCc1ccncc1 [Example 28] , reported % Protection: 11

Briefly, % Protection measured for CCCCCCNCCc1ccncc1 [Example 22] : 11

Recorded % Protection (compound CCCCCCCCCCCCNCCc1ccccn1 [Example 4] ): 24

Form: compound = NCCCNCCc1ccccn1 [Example 14] ; % Protection = 26

Recorded result, CCCCCCCCCCCCNCCc1ccncc1 [Example 25] , % Protection: 5

Data point: c1ccc(CN(CCc2ccccn2)CCc2ccccn2)cc1 [Example 20] ; % Protection = 51

Recorded result, NCCNCCNCCc1ccncc1 [Example 34] , % Protection: 18

Lab book: % Protection of CCCCCCCCCCCCCCNCCc1ccccn1 [Example 5] noted as 3

Reported % Protection of CCCCCCCCCCCCN(CCc1ccncc1)CCc1ccncc1 [Example 39] : 41

====

Assay: Emulsion Test (3 wt% brine / heptane)
Format: physicochemical
Settings: water layer; 50 ml 3 wt% brine/50 ml heptane
quantity_kind: Appearance after 30 mins, water

compound="NCCCNCCc1ccccn1 [Example 14]" quantity_kind="Appearance after 30 mins, water" observed=hazy
compound="NCCNCCNCCc1ccncc1 [Example 34]" quantity_kind="Appearance after 30 mins, water" observed=clear
compound="CCCCCCCCCCCCNCCc1ccncc1 [Example 25]" quantity_kind="Appearance after 30 mins, water" observed=hazy
compound="CCCCCCCCCCCCCCCCNCCc1ccccn1 [Example 6]" quantity_kind="Appearance after 30 mins, water" observed=hazy

====

Assay: Corrosion Test 4 (dynamic wheel test; 3 wt% brine + Mentor 28; H2S)
Details: 2 ppm; 24 h, 70° C.
Assignment: determine reported % Protection for the given molecules.
Answer by giving the amount and then stating its unit.

Briefly, % Protection measured for "CCCCCCCCCCCCNCCc1ccncc1" : 11%

The molecule "CCCCCCCCCCCCCCCCNCCc1ccccn1" showed % Protection equal to 0%

Lab note: measured % Protection of "c1ccc(CNCCc2ccccn2)cc1" was 8%

response.value for "CCCCCCNCCc1ccncc1" (field: % Protection) = 8%

Lookup result for "CCCCCCCCCCCCN(CCc1ccncc1)CCc1ccncc1" ; measured % Protection: 3%

====

Assay: Emulsion Test (3 wt% brine / heptane)
Type: physicochemical
Conditions: 1 ml of 35 wt% IPA solution, 50 ml 3 wt% brine, 50 ml heptane
Would you mind telling me the reported Time to break emulsion of each entry?

The molecule identified as c1ccc(CN(CCc2ccccn2)CCc2ccccn2)cc1 [Example 20] registered its Time to break emulsion at 1 min

// recorded Time to break emulsion for CCCCCCCCCCCCCCNCCc1ccccn1 [Example 5] : > 30 min

Sample CCCCCCCCCCCCCCCCNCCc1ccccn1 [Example 6] ; Time to break emulsion observed: > 30 min

So, CCCCCCCCCCCCCCCCNCCc1ccncc1 [Example 27] ? Its Time to break emulsion was > 30 min

# Time to break emulsion (molecule: c1ccc(CNCCc2ccncc2)cc1 [Example 29] ) is 1 min

// sample NCCNCCc1ccccn1 [Example 13] , its Time to break emulsion was > 30 min
